# experimental system: UniProtKB Q9NYK1
# Sequence (Q9NYK1 27-1049): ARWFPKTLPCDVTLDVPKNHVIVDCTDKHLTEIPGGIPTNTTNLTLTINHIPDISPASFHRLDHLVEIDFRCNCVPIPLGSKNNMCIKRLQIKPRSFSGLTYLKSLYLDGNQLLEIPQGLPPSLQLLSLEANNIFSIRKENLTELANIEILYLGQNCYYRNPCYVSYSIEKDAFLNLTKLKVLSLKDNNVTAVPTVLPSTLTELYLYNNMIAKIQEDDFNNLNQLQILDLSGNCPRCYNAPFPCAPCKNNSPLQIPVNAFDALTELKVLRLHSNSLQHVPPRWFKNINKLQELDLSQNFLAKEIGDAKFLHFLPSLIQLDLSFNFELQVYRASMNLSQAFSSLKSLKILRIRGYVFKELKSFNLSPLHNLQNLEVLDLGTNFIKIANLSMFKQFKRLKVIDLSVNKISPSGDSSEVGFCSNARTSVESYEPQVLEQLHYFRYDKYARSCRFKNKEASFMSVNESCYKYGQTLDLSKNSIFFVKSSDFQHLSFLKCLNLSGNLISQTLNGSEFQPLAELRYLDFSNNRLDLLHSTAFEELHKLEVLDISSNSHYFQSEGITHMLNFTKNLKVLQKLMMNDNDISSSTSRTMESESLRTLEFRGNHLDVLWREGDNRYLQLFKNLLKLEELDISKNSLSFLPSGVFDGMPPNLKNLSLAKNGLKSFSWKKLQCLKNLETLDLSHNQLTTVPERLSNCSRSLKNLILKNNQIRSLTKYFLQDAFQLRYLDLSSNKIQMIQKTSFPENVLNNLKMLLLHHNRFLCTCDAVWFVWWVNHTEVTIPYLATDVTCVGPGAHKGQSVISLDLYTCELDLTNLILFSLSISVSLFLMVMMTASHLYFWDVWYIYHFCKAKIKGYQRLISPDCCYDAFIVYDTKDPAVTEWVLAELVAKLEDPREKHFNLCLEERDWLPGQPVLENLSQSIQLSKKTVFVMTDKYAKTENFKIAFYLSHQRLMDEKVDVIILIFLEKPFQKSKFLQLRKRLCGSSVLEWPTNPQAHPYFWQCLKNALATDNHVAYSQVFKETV
# method notes: Reporter gene assay, HEK-Blue TLR7 reporter cells (SEAP)
metric: EC50 (nM)

Worked examples follow.
1) CCCCc1nc2c(N)nc3ccsc3c2n1Cc1ccc(CNCCCC[C@H](N)C(=O)O)cc1 [Compound 305]
108
2) CCCCc1nc2c(N)nc3ccsc3c2n1CCCCCN1CCNCC1 [Compound 182]
24
3) CCCCc1nc2c(N)nc3ccsc3c2n1Cc1nc(CN(CC)CC)cs1 [Compound 233]
140
4) CCCCc1nc2c(N)nc3ccsc3c2n1CCCCCN(CC)CC [Compound 175]
12
5) CCCCc1nc2c(N)nc3ccsc3c2n1Cc1cccc(CNCC(C)(C)O)c1 [Compound 205]
110

[A] CCCCc1nc2c(N)nc3ccsc3c2n1Cc1ccc(CNCCC(=O)N[C@@H](Cc2cnc[nH]2)C(=O)O)cc1 [Compound 301]
[B] CCNCc1nc2c(N)nc3ccsc3c2n1Cc1ccc(CN(CC)CC)cc1 [Compound 269]
Exercise: Which value of EC50 is greater, the one for A or the one for B ? The response must carry the label of the picked entry.
Key: A

[a] CCCCc1nc2c(N)nc3ccsc3c2n1Cc1ccc(CN2CCN(CCNC(=O)OC(C)(C)C)CC2)cc1 [Compound 165]
[b] CCCCc1nc2c(N)nc3ccsc3c2n1CCCCCNCC(C)(C)O [Compound 180]
Exercise: Which value of EC50 is greater, the one for a or the one for b ? The response must carry the label of the picked entry.
Key: b
(b: 83 nM, a: 15 nM)
